System: SF-539 CNS
Test: NCI tumour cell line growth inhibition, 48 h
Where a SMILES comes first, the peptide text is derived from it. [ ]: non-standard residue; d: D form. The star is where a group is joined. ξ: configuration not given here. Propanoyl(3-(4-MeO-Ph)) = COc1ccc(CCC(=O)*)cc1; Thr(3ξ) = CC(O)[C@H](N)C(=O)O; dNMeL = CN[C@H](CC(C)C)C(=O)O; OBn = c1ccc(CO*)cc1; ξLac = CC(O)C(=O)O
Let's look at some compounds and their measured TGI.

# compound, tgt, TGI
data = [
    ("CC(C)CC1[C@@H](OCc2ccccc2)COS(=O)(=O)N1Cc1ccccc1 (stereo partly drawn)", "SF-539 CNS", "> 100 µM"),
    ("CC1(C)N=C(/C=N/O)C(C)(C)N1O", "SF-539 CNS", "> 100 µM"),
    ("Cc1ccc(C(=O)CCC2C(=O)CC(C)(C)CC2=O)cc1", "SF-539 CNS", "> 100 µM"),
    ("COc1ccc(CCC(=O)OC(C)[C@H](NC(=O)[C@@H](CC(C)C)N(C)C(=O)[C@@H]2CCCN2C(=O)C(C)O)C(=O)OCc2ccccc2)cc1 (stereo partly drawn) (H-[ξLac]P[dNMeL][Thr(3ξ)](Propanoyl(3-(4-MeO-Ph)))-OBn)", "SF-539 CNS", "46.2 µM"),
    ("CCCCNC(=O)Oc1ccc2c(=O)c3sc4c(=O)c5ccccc5c(=O)c4c3c(=O)c2c1", "SF-539 CNS", "0.767 µM"),
    ("C[C@@H](Oc1cc(NS(=O)(=O)N2CCC2)nc(SCc2cccc(F)c2F)n1)[C@@H](O)CO", "SF-539 CNS", "> 100 µM"),
    ("CC(C)(C)OC(=O)NC(Cc1ccc(OCc2ccccc2)cn1)C(=O)N1CCSCC1 (stereo not drawn)", "SF-539 CNS", "> 100 µM"),
    ("O=C1OC[C@@H]2Cc3c([nH]c4ccccc34)[C@@H](c3cc(O)c(O)c(O)c3)N12", "SF-539 CNS", "37.9 µM"),
    ("COc1ccc(C2SCC(=O)N2NC(=O)C(C)Oc2ccccc2Cl)cc1 (stereo not drawn)", "SF-539 CNS", "> 100 µM"),
    ("CCCCCCCC(=O)OCC1OC(n2cc(F)c(=O)[nH]c2=O)C(NC(=O)OCc2ccccc2)C(OC(=O)CCCCCCC)C1O (stereo not drawn)", "SF-539 CNS", "74.4 µM"),
    ("O[C@H]1[C@H](O)[C@H](O)CN2CCC[C@@H](O)[C@H]12", "SF-539 CNS", "> 100 µM"),
    ("C=C1SC(=Nc2ccccc2Cl)N(C(=O)c2sc3ccccc3c2Cl)C1(C)C", "SF-539 CNS", "> 100 µM"),
    ("COC(=O)c1cc2c3c(cc(O)c2[nH]1)N(C(=O)C1Cc2cc(OC)c(OC)c(OC)c2N1)CC3CCl (stereo not drawn)", "SF-539 CNS", "< 0.01 µM"),
    ("O=C(COc1ccc(Cl)cc1)N1N=C(c2ccc([N+](=O)[O-])o2)CC1(O)c1ccccc1 (stereo not drawn)", "SF-539 CNS", "26.9 µM"),
    ("O=C(NCCCCNCCCNC(=O)c1cc(-c2ccccc2)nc2ccccc12)c1cc(-c2ccccc2)nc2ccccc12", "SF-539 CNS", "3.81 µM"),
    ("COc1ccc(-c2nc(N)c3ncn(C4OC(CO)C(O)C4O)c3n2)cc1 (stereo not drawn)", "SF-539 CNS", "> 100 µM"),
    ("Cc1ccc([N+](=O)[O-])cc1S(=O)(=O)Nc1ccc(C2=NNC(c3cccs3)C2)cc1 (stereo not drawn)", "SF-539 CNS", "> 100 µM"),
    ("COc1cc2c(cc1OC)C(Cc1ccccc1CCCl)=NCC2", "SF-539 CNS", "48.6 µM"),
]
